Target: T1, FZD10 cysteine-rich domain (CRD), MYC-tagged and GPI-anchored on CHO cells (human, UniProt Q9ULW2 30-156, GPI anchor)
T1 construct: also called FZD10 CRD; CHO-myc-FZDGPI; not shown: MYC tag and GPI anchor signal
T1 sequence: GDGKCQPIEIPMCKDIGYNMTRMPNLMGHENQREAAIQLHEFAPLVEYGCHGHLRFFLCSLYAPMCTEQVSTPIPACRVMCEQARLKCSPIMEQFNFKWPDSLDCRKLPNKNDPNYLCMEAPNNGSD
Experiment: immunofluorescence, CHO-CRD cells

Binder: Fab-2925 (Fab, V domains shown, Fab; also called Fv-2925) VH: EVQLVESGGGLVQPGGSLRLSCAASGFNLSYSSMHWVRQAPGKGLEWVASIYPSYGSTYYADSVKGRFTISADTSKNTAYLQMNSLRAEDTAVYYCARYGYFGLDYWGQGTLVTVSS VL: DIQMTQSPSSLSASVGDRVTITCRASQSVSSAVAWYQQKPGKAPKLLIYSASSLYSGVPSRFSGSRSGTDFTLTISSLQPEDFATYYCQQAWVYASLFTFGQGTKVEIK
binding result: no binding

Binder: Fab-2910 (Fab, V domains shown, Fab) VH: EVQLVESGGGLVQPGGSLRLSCAASGFNISYSYMHWVRQAPGKGLEWVASIYSSSSSTSYADSVKGRFTISADTSKNTAYLQMNSLRAEDTAVYYCARGAMDYWGQGTLVTVSS VL: DIQMTQSPSSLSASVGDRVTITCRASQSVSSAVAWYQQKPGKAPKLLIYSASSLYSGVPSRFSGSRSGTDFTLTISSLQPEDFATYYCQQWYGSHLITFGQGTKVEIK
binding result: no binding

Binder: Fab-2936 (Fab, V domains shown, Fab; also called Fv-2936) VH: EVQLVESGGGLVQPGGSLRLSCAASGFNISYYYMHWVRQAPGKGLEWVASIYSSSGSTSYADSVKGRFTISADTSKNTAYLQMNSLRAEDTAVYYCARAAMDYWGQGTLVTVSS VL: DIQMTQSPSSLSASVGDRVTITCRASQSVSSAVAWYQQKPGKAPKLLIYSASSLYSGVPSRFSGSRSGTDFTLTISSLQPEDFATYYCQQWYAASLITFGQGTKVEIK
binding result: no binding

Where these numbers come from: patent US20210253718A1
